# system-name: Kdn(a2-3)Gal(b1-3)GlcNAc
# measurement-notes: glycan array binding signal (z-score within array); higher = stronger binding
# measurement-setup: glycan notation: IUPAC condensed, linker removed
The entries come from a sample that favours the strongest signals as a whole.
Given measured glycan array binding signal (z-score), output T if it is greater than or equal to -0.4 and F if not.

# binder, class-assignment
measured = [
    ("LEA (Lycopersicon esculentum) (protein) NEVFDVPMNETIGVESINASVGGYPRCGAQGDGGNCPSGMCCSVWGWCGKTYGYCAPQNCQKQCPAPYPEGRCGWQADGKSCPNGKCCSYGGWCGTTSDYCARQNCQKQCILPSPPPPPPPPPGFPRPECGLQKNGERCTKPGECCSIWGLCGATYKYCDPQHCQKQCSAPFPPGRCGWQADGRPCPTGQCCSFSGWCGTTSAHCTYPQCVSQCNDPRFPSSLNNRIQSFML", "F"),
    ("LlpA1 (Pseudomonas fluorescens), Q4KHC3 (protein) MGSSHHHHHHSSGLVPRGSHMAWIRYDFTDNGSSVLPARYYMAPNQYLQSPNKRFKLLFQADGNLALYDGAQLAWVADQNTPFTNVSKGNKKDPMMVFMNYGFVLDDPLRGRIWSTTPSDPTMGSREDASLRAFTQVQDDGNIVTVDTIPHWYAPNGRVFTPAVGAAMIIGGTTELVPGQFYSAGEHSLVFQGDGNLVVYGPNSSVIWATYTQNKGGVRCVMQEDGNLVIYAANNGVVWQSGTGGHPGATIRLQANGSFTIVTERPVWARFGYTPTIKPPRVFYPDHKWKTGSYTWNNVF", "F"),
    ("UEA-I (Ulex europaeus), P22972 (protein) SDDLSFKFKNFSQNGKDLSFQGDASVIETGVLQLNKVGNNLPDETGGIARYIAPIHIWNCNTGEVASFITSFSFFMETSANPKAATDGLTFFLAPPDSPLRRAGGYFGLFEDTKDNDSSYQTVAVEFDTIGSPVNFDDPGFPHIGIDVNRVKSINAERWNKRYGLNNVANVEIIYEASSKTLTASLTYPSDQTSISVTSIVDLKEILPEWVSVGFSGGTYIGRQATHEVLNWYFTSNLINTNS", "T"),
    ("HHL-1 (Homo sapiens), P07306 (protein) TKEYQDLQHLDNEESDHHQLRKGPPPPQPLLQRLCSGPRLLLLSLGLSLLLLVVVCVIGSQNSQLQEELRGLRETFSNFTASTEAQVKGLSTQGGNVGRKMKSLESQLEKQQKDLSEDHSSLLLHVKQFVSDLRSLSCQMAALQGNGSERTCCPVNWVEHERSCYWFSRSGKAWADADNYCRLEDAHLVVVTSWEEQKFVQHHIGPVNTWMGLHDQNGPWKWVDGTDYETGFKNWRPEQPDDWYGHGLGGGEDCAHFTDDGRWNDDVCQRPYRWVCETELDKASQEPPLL", "F"),
    ("MXA PilAct-eGFP (Myxococcus xanthus), Q59589 (protein) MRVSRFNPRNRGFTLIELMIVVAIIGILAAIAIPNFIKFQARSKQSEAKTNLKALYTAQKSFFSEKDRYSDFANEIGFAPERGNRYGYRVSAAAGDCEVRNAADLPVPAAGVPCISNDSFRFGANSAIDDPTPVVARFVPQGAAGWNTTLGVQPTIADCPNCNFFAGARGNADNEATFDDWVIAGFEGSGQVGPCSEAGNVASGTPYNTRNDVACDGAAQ", "T"),
]

Could you now consider this next binder?
Query :: API: above_or_equal(metric=glycan array binding signal (z-score), cutoff=-0.4) for item Gal 3 (Canis lupus) (protein) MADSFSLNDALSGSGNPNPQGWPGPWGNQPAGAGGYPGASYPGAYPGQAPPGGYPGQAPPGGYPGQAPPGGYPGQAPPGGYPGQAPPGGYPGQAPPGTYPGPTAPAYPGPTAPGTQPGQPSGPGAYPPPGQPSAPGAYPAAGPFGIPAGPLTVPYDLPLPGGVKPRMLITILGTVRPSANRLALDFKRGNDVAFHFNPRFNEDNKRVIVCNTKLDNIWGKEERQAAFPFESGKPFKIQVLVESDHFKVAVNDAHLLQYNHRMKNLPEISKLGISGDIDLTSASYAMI
Result :: T
